Attribution: patent US20240124585A1

Molecular target: T1, human CD3 epsilon (Acro Cat #CDE-H5223) (human, UniProt P07766 23-126)
T1 construct: Bought recombinant protein; also called rhCD3E
T1 sequence (P07766 23-126 limits assumed): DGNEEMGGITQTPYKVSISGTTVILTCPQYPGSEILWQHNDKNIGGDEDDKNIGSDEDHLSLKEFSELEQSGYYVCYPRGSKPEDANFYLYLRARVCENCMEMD
Experiment: SPR (Biacore), antibody captured, human CD3 epsilon analyte
Entries annotated with measured Kd

[
  {
    "Binder": "SRP 2037-B10 S107D/R97D (antibody, human IgG1, lambda, V domains shown, human IgG1, lambda) VH: EVQLVESGGGLVKPGGSLRLSCAASGFTFNKYAMNWVRQAPGKGLEWVARIRTKYNNYATYYADSVKDRFTISRDDSKNTAYLQMNSLKTEDTAVYYCVRHGNFGNDYISYWAYWGQGTPVTVSS VL: QTVVTQEPSLTVSPGGTVTLTCGSSTGAVTSGYYPNWLQQKPGQAPRGLIGGTKFLAPGTPARFSGSLLGGKAALTLSGVQPEDEAEYYCALWYSNDWVFGGGTQLTVTG",
    "Kd": "15.8 nM"
  },
  {
    "Binder": "SRP 2037-B10 Y61D/LC6 (antibody, human IgG1, kappa, V domains shown, human IgG1, kappa) VH: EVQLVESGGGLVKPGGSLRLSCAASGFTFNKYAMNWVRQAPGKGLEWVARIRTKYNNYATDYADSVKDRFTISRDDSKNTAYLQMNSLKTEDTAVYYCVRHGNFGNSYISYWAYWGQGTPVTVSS VL: DIQMTQSPSSLSASVGDRVTITCGSSTGAVTSGYYPNWLQQKPGQAPRGLIGGTKFLAPGVPSRFSGSLSGGKATLTISSLQPEDFATYYCALWYSNRWVFGGGTKVEIKR",
    "Kd": "3.63 nM"
  },
  {
    "Binder": "2037-B10_Hc-Y55D (antibody, human IgG1, lambda, V domains shown, human IgG1, lambda; also called SRP 2037 Y55D; 2037-B10_VH-Y55D) VH: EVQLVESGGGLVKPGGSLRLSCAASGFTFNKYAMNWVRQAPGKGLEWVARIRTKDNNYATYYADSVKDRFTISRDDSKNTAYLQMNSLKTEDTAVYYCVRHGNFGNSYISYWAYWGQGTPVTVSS VL: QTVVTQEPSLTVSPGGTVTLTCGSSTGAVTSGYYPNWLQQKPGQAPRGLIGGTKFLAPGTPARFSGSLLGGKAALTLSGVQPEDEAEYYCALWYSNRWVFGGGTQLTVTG",
    "Kd": "2.45 nM"
  },
  {
    "Binder": "SRP 2037-B10 F104D/LC6 (antibody, human IgG1, kappa, V domains shown, human IgG1, kappa) VH: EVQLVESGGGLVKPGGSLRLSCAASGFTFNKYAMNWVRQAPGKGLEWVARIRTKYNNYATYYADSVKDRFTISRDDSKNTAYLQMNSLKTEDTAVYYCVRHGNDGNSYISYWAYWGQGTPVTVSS VL: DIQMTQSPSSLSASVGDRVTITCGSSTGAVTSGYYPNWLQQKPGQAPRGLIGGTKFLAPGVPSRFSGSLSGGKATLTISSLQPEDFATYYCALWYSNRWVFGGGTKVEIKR",
    "Kd": "3.7 nM"
  },
  {
    "Binder": "SRP 2037-B10 F104D/R97D (antibody, human IgG1, lambda, V domains shown, human IgG1, lambda) VH: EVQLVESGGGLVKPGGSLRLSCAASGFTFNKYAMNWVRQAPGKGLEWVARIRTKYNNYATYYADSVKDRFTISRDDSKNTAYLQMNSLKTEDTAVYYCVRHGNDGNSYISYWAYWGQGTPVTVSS VL: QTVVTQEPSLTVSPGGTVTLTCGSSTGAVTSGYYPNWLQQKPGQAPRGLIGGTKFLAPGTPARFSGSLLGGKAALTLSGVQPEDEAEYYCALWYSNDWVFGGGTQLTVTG",
    "Kd": "6.99 nM"
  },
  {
    "Binder": "2037-B10_Hc-F29D (antibody, human IgG1, lambda, V domains shown, human IgG1, lambda; also called SRP 2037 F29D; 2037-B10_VH-F29D) VH: EVQLVESGGGLVKPGGSLRLSCAASGFTDNKYAMNWVRQAPGKGLEWVARIRTKYNNYATYYADSVKDRFTISRDDSKNTAYLQMNSLKTEDTAVYYCVRHGNFGNSYISYWAYWGQGTPVTVSS VL: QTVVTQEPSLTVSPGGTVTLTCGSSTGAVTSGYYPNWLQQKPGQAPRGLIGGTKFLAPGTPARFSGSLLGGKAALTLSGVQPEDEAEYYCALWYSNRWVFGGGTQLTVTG",
    "Kd": "11 nM"
  }
]
